- System: HL-60(TB) leukemia
- ASSAY REMARKS: NCI-60 one-dose screen, 48 h
- CONDITION LABEL: 10 µM unless noted
This is part of a sample that, as a whole, favours compounds with a hit. Of some 83,000 tested, about 20% had one in any assay. Active and inactive are the calls of the source. Rule for the calls: active = growth percent below 10; inactive = the rest.
Just give me one of these, please: active, inactive

Req: In this assay, the call recorded for CC(C)(C)n1cc(-c2ccnc(NCCNS(=O)(=O)c3ccc(Cl)cc3)c2)c(-c2cccc(O)c2)n1 was what?
Resp: inactive

Req: In this assay, the call recorded for COc1ccc(S(=O)(=O)N(C(C)=O)c2ccccc2/C=C/c2cc[n+]([O-])cc2)cc1 was what?
Resp: active

Req: In this assay, the call recorded for COc1ccc(C(=O)Nn2c(NCC(=O)N3c4ccccc4Sc4ccccc43)nnc2-c2ccc(O)cc2)cc1 was what?
Resp: inactive

Req: In this assay, the call recorded for Cn1c(=O)c2[nH]c(SCC(=O)Nc3ccc(C(=O)/C=C/c4ccccc4Cl)cc3)nc2n(C)c1=O was what?
Resp: inactive

Req: In this assay, the call recorded for C#CCOc1cccc(Nc2ncnc3c2ncn3C2CCN(C(=O)CCl)C2)c1 (centres undefined) was what?
Resp: active

Req: In this assay, the call recorded for CCCCC#Cc1c(I)n(C2OC(CO[Si](C)(C)C(C)(C)C)C3OC(C)(C)OC32)c(=O)n(C(=O)c2ccccc2)c1=O (centres undefined) was what?
Resp: inactive

Req: In this assay, the call recorded for N#C/C(=C\c1ccc(Cl)cc1)n1nnc2cc(F)c(F)cc21 was what?
Resp: active

Req: In this assay, the call recorded for O=S(=O)(Nc1ccsc1-c1nc(-c2ccccc2)no1)c1cc(Cl)cc(Cl)c1 was what?
Resp: inactive

Req: In this assay, the call recorded for COc1cc(C[C@H]2COc3cc(O)cc(O)c3C2=O)ccc1O was what?
Resp: active

---

- Test system: SK-MEL-28 melanoma
- ASSAY REMARKS: NCI-60 one-dose screen, 48 h
- CONDITION LABEL: 10 µM unless noted
About 83,000 compounds went through this panel and 20% of them were active in at least one assay; those are over-represented in the sample as a whole. Calls of active or inactive are those of the source. Rule for the calls: active = growth percent below 10; inactive = the rest.
Just give me one of these, please: active, inactive

Req: In this assay, the call recorded for NC(=O)C(Cl)Cl was what?
Resp: inactive

Req: In this assay, the call recorded for COP(=S)(OC)Oc1ccc(SC)c(C)c1 was what?
Resp: inactive

Req: In this assay, the call recorded for O=CN1N=C(c2ccc3c(c2)OCO3)CC1c1sc(N(CCCl)CCCl)nc1Cl (stereo not drawn) was what?
Resp: inactive

Req: In this assay, the call recorded for CC(=O)O[C@@H]1C2=C(C)C3(CC3)[C@@](C)(O)C(=O)C2=C[C@@]1(C)CO was what?
Resp: active

Req: In this assay, the call recorded for C[CH2][Sn]([CH2]C)([CH2]C)[NH]S(=O)(=O)c1ccc(C)cc1 was what?
Resp: inactive

Req: In this assay, the call recorded for NC(Cc1ccc(O)cc1)C(=O)N/N=C/c1ccc(N(CCCl)CCCl)cc1 (stereo not drawn) was what?
Resp: inactive

Req: In this assay, the call recorded for C/C(=N/OC(=O)N(C)C)c1ccc(Cl)cc1Cl was what?
Resp: inactive

Req: In this assay, the call recorded for O=C(O)C1(Br)CC12c1ccccc1-c1ccccc12 (stereo not drawn) was what?
Resp: inactive
